- procedure-details: Repose angle by fixed funnel method (flowability)
- Format: physicochemical
Kindly state Repose angle for each of the entries shown.

[
  {
    "molecule": "CCCCc1nc(Cl)c(C(=O)OCOC(=O)OC(C)C)n1Cc1ccc(-c2ccccc2-c2nnn[nH]2)cc1 [Example 1]",
    "Repose angle": "34-36 °"
  },
  {
    "molecule": "CCCCc1nc(Cl)c(C(=O)OCOC(=O)OC(C)C)n1Cc1ccc(-c2ccccc2-c2nnn[nH]2)cc1 [Literature crystal, reference compound]",
    "Repose angle": "48-53 °"
  },
  {
    "molecule": "CCCCc1nc(Cl)c(C(=O)OCOC(=O)OC(C)C)n1Cc1ccc(-c2ccccc2-c2nnn[nH]2)cc1 [Example 2]",
    "Repose angle": "35-37 °"
  }
]

Your task in this section: give Repose angle for each listed record.
1. CCCCc1nc(Cl)c(C(=O)OCOC(=O)OC(C)C)n1Cc1ccc(-c2ccccc2-c2nnn[nH]2)cc1 [Example 4]
2. CCCCc1nc(Cl)c(C(=O)OCOC(=O)OC(C)C)n1Cc1ccc(-c2ccccc2-c2nnn[nH]2)cc1 [Example 3]

1: 35-38 °; 2: 33-35 °

----------
- procedure-details: Bulk density by cylinder knocking method
- Type: physicochemical
Kindly state Bulk density for each of the entries shown.
Answers are plain numbers, in g/mL.

Reference set, count: 4
[
  {
    "compound": "CCCCc1nc(Cl)c(C(=O)OCOC(=O)OC(C)C)n1Cc1ccc(-c2ccccc2-c2nnn[nH]2)cc1 [Example 4]",
    "quantitative-result": 0.77
  },
  {
    "compound": "CCCCc1nc(Cl)c(C(=O)OCOC(=O)OC(C)C)n1Cc1ccc(-c2ccccc2-c2nnn[nH]2)cc1 [Example 1]",
    "quantitative-result": 0.75
  },
  {
    "compound": "CCCCc1nc(Cl)c(C(=O)OCOC(=O)OC(C)C)n1Cc1ccc(-c2ccccc2-c2nnn[nH]2)cc1 [Example 2]",
    "quantitative-result": 0.73
  },
  {
    "compound": "CCCCc1nc(Cl)c(C(=O)OCOC(=O)OC(C)C)n1Cc1ccc(-c2ccccc2-c2nnn[nH]2)cc1 [Literature crystal, reference compound]",
    "quantitative-result": 0.51
  }
]

Look up Bulk density for this compound: CCCCc1nc(Cl)c(C(=O)OCOC(=O)OC(C)C)n1Cc1ccc(-c2ccccc2-c2nnn[nH]2)cc1 [Example 3]
0.77
